Examples of compounds with documented pIC50 follow.
System: HUT
protocol_text: HUT cell inhibition assay (WST-1 cell viability)
Format: cell-based
experimental_setup: HUT cells, 72-96 h, WST-1 assay, IC50 range
Protocol: Cancer cell lines (U937 and HUT) growing in log phase were harvested and seeded at 1000-2000 cells/well (100 μl final volume) into 96-well tissue culture plates. Following 24 h of growth cells were treated with compound. […] Data were expressed as a percentage inhibition of the control, measured in the absence of inhibitor, as follows:— % inhibition=100−[(S^i/S^o)×100] where S^i is the signal in the presence of inhibitor and S^o is the signal in the presence of DMSO. […]
pIC50: −log10 of the molar value. Structures can show the parent of a compound that is named as a salt.
value_type: pIC50

1) O=C(NO)c1cnc(N2CC(NS(=O)(=O)c3ccc4ccccc4c3)C2)nc1: 5.48 to 6.48
2) O=C(NO)c1cnc(N2CC3C(C2)C3NS(=O)(=O)c2ccc3ccccc3c2)nc1 (stereo not drawn) [Example 1, trifluoroacetate]: > 6.48
3) O=C(NO)c1cnc(N2CC3C(C2)C3N(CCc2ccccn2)S(=O)(=O)c2ccc3ccccc3c2)nc1 (stereo not drawn): 5.48 to 6.48
4) O=C(NO)c1cnc(N2CC3C(C2)C3NC(=O)C2(c3ccccc3)CC2)nc1 (stereo not drawn): 5.48 to 6.48
5) O=C(NO)c1cnc(N2CC3C(C2)C3N(CCN2CCOCC2)S(=O)(=O)c2ccc3ccccc3c2)nc1 (stereo not drawn): > 6.48
6) O=C(NO)c1cnc(N2CC3CN(S(=O)(=O)c4cc(C(F)(F)F)cc(C(F)(F)F)c4)CC3C2)nc1 (stereo not drawn): 5.48 to 6.48
